Biological target: UniProtKB P0DMS8
Sequence (P0DMS8 whole entry): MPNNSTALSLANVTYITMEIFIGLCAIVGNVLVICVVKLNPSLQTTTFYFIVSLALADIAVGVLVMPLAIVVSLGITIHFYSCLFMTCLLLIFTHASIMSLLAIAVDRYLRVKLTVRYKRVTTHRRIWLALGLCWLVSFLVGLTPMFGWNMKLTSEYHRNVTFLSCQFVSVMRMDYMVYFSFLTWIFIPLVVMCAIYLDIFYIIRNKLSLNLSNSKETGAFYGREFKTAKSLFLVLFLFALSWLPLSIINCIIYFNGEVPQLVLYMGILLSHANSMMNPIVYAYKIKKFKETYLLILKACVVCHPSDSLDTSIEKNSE
From various publications: pKi for UniProtKB P0DMS8.
The meaning of pKi here: minus log10 of the concentration in molar units.

Kindly note the recorded pKi for Nc1nc(C#Cc2ccccc2)nc2c1ncn2[C@@H]1O[C@H](CO)[C@@H](O)[C@H]1O , which is 7.38

Kindly note the recorded pKi for Nc1nc2c([N+](=O)[O-])cccc2n2c(=O)n(-c3ccccc3)nc12 , which is 8.32

Kindly note the recorded pKi for CN(C)c1nc(-c2nccs2)c2sccc2n1 , which is 5.75

Kindly note the recorded pKi for COc1ccc(CN2CCC(NC(=O)Nc3nc4nn(C)cc4c4nc(-c5ccco5)nn34)CC2)cc1 , which is 7.88

Kindly note the recorded pKi for CNc1nc(-n2cc(-c3ccc4ccccc4n3)cn2)nc2c1ncn2C1O[C@H](CO)[C@@H](O)[C@H]1O (stereo partly specified) , which is 8.52

Kindly note the recorded pKi for N#Cc1cccc(CSc2nc(N)c(C#N)c(-c3ccco3)c2C#N)c1 , which is 6.18

Kindly note the recorded pKi for CNc1ncc(C(=O)O)c2nc(-c3ccco3)nn12 , which is 4.80

Kindly note the recorded pKi for COc1ccc(-n2nc3c(NC(=O)c4ccccc4)nc4ncccc4n3c2=O)cc1 , which is 8.34

Kindly note the recorded pKi for Nc1nc(-c2ccc(NC(=O)c3ccc(C(=O)NO)cc3)cc2)cn2c(=O)n(-c3ccccc3)nc12 , which is 6.26

Kindly note the recorded pKi for Cc1nc2sc(-c3cccs3)nc2c(=O)[nH]1 , which is 6.61

Kindly note the recorded pKi for Cc1cccc(-n2cc3c(n2)c(NC(=O)c2ccccc2)nc2ccccc23)c1 , which is 8.37

Kindly note the recorded pKi for CCOC(=O)c1nc2c(O)nc3ccc(N)cc3n2n1 , which is 7.60

Kindly note the recorded pKi for CC(=O)Nc1nc2sc3c(c2c(=O)[nH]1)CCC3 , which is 5.87

Kindly note the recorded pKi for C=CCn1c(=O)c2c(nc3ccccn32)n(Cc2ccccc2)c1=O , which is 8.30

Kindly note the recorded pKi for COc1ccccc1-n1nc2c(=O)[nH]c(-c3ccccc3)cn2c1=O , which is 5.28

Kindly note the recorded pKi for CC(C)Nc1nc2nn(C)cc2c2nc(-c3ccco3)nn12 , which is 7.47

Kindly note the recorded pKi for Cc1ccc(CNC(=O)c2cc(-c3ccco3)nc(N)n2)cc1 , which is 5.73

Kindly note the recorded pKi for CC1(C)CC(Nc2ncnc3c2ncn3[C@@H]2O[C@H](CO)[C@@H](O)[C@H]2O)CC(C)(C)N1 , which is 4.60

Kindly note the recorded pKi for CCOC(=O)C(CO)Nc1nc2nn(C)cc2c2nc(-c3ccco3)nn12 (racemic) , which is 7.77

Kindly note the recorded pKi for Cn1cc2c(nc(N3CCOCC3)n3nc(-c4ccco4)nc23)n1 , which is 6.29
